# test-system: T1, human DR3 (TNFRSF25) expressed on cells (human, UniProt Q93038 25-417)
# T1 sequence: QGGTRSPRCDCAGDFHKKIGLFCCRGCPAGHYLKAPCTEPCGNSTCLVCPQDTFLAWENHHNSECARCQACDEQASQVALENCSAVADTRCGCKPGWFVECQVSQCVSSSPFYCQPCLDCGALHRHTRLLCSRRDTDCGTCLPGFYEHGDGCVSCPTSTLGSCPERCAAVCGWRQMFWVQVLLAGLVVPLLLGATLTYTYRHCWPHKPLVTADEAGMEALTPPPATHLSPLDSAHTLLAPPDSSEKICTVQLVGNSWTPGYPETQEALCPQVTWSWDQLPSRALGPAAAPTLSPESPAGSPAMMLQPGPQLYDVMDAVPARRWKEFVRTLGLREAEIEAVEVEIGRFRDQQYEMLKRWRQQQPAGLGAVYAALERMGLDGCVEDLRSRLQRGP
# experimental-protocol: cell-based or functional assay
Can you tell me Signal (FLU) for the items I'm about to list?
The answer is to be given in FLU; state only the numeric part.

// VHg6/mVL (antibody, human IgG1, V domains shown) VH: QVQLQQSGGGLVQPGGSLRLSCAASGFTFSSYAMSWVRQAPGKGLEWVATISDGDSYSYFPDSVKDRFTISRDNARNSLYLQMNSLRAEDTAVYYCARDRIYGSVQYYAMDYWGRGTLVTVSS VL: DIVLTQSPASLAVSLGQRATISCRASESVEFSGTSLMQWYQQRPGLPPKLLIYAASNVESGVPARFSGSGSGTDFSLNIHPVEEDDIAMYFCQQSRKLPYTFGGGTKLEIN : Signal (FLU) value = 2.6e+06

// VHg3/VLg11 (antibody, human IgG1, V domains shown, human IgG1) VH: EVQLVQSGGGLVKPGGSLRLSCAASGFKFSSYAMSWVRQAPGKGLEWLSTISDGDSYSYFPDSVKDRFIISRDNAKNSLYLQMNSLRVEDTGVYYCARDRIYGSVQYYAMDYWGQGTLVTVSS VL: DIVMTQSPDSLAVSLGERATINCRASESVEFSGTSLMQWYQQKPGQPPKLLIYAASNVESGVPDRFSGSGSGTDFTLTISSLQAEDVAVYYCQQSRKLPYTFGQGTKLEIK : Signal (FLU) value = 2.38e+06

// VHg1/VLg1 (antibody, human IgG1, V domains shown) VH: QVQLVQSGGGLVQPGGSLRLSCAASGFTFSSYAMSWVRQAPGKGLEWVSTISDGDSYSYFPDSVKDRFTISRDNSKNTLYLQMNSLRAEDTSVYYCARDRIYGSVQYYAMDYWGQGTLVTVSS VL: DVVMTQSPDSLAVSLGERATINCRASESVEFSGTSLMQWYQQKPGQPPKLLIYAASNVESGVPDRFSGSGSGTDFTLTISSLQAEDVVVYYCQQSRKLPYTFGGGTKVEIK : Signal (FLU) value = 797000

// VHg5/VLg11 (antibody, human IgG1, V domains shown, human IgG1) VH: QVQLQQSGGGLVQAGGSLRLSCAASGFTFTSYAMSWVRQAPGKGLEWVATISDGDSYSYFPDSVKDRFIISRDNAKNSLFLQMNSLRAEDTAVYYCARDRIYGSVQYYAMDYWGRGTLVTVSS VL: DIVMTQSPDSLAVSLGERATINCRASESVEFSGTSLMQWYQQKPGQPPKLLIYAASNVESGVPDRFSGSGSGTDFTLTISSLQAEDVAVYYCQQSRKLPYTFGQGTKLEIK : Signal (FLU) value = 2.4e+06

// VHg3/VLg4 (antibody, human IgG1, V domains shown, human IgG1) VH: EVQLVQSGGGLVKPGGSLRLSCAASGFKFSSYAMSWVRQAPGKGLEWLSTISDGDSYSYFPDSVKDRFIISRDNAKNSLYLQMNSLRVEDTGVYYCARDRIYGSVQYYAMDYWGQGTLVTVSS VL: DVVMTQSPDSLAVSLGERATISCRASESVEFSGTSLMQWYQQKPRQPLKLLIYAASNVESGVPDRFSGSGSGTDFTLTISSLQAEDVAVYYCQQSRKLPYTFGQGTRLEIK : Signal (FLU) value = 2.32e+06
